Origin of the recorded values: ChEMBL document CHEMBL1201862

# System: NCI/ADR-RES
# testDetails: NCI tumour cell line growth inhibition, 48 h
Calls of active or inactive are those of the source. Cut-off read from the data, not from the text of the source: active = GI50 up to about 1.1 µM and inactive = higher.
endpointLabel: GI50

Worked examples follow.
O=[N+]([O-])c1cccc(CSc2nc(O)c3nc[nH]c3n2)c1 | > 100 µM (inactive)
CC(=O)Nc1ccccc1C=C1c2ccccc2-c2ccccc21 | 18.7 µM (inactive)
Cc1ccc(C(=O)Cc2nc3ncccc3[nH]c2=O)cc1 | 59 µM (inactive)
c1ccc(P(CCP(c2ccccn2)c2ccccn2)c2ccccc2)cc1 | > 100 µM (inactive)
CC(=O)N(C(=O)CC(=O)NNCc1ccccc1Cl)c1ccc(Cl)cc1 | > 10 µM (inactive)
C=CC(COC(=O)C(C)(C)OC(C)=O)c1ccc(OC(=O)C(C)C)c(OC)c1 (stereo not given) | 11 µM (inactive)
COc1cc2c(cc1OC)[C@@](C)(C(O)C(O)C(C)(C)O)NCC2 (stereo not given in full) | > 100 µM (inactive)
CCCc1cc(=O)oc2c3c(c4c(c12)OC(C)(C)CC4)O[C@H](C)[C@@H](C)[C@H]3O | 11.2 µM (inactive)

Quick one: GI50 for CCc1n[nH]c(=O)n1/N=C/c1ccc(C)cc1 ? > 100 µM (inactive)

Quick one: GI50 for C=C(C)C1CC/C(C)=C/CC[C@]2(C)O[C@H]2CC/C(COC(C)=O)=C\[C@@H]1O (stereo not given in full) ? 20.7 µM (inactive)

====

# Tested on: OVCAR-4
# testDetails: NCI tumour cell line growth inhibition, 48 h
Activity calls are given as the source filed them. No stated cut-off is given here; in the data, active = GI50 up to about 1.1 µM and inactive = higher.
Outcomes you can answer with include only these: yes (1) (active), no (0) (inactive)

C1=C\SS/C=C\SS/1 | no (0)
O=c1c2c3c(sc2nc2n1N=CN(c1ccccc1)C2)CCCC3 | no (0)
O=C(C[n+]1ccccc1)N/N=C(\Cc1nc2ccc([N+](=O)[O-])cc2nc1O)C(=O)Nc1cc(Cl)c(Cl)cc1Cl | no (0)

Tell me the assay call for COc1ccc(C2SC(C)C(=O)N2c2nc(-c3nc(-c4ccc(Cl)cc4)cs3)cs2)cc1 (stereo not given) please. no (0)

Tell me the assay call for CCOc1ccccc1NC(=O)C1=C(C)NC(C)=C(C(=O)Nc2ccccc2OCC)C1c1ccc([N+](=O)[O-])cc1 please. no (0)

Tell me the assay call for COc1c2c3c4c(c(OC)c(=O)c5c(O)cc(OC)c(c6c(OC)cc(O)c(c1=O)c63)c54)C(C(C)O)C2C(C)=O (stereo not given) please. yes (1)

Tell me the assay call for CC(=O)Nc1ncc2c(n1)-c1ccccc1OC2 please. no (0)

Tell me the assay call for C[C@H](CCC(=O)O)[C@H]1CC[C@H]2[C@@H]3C(=O)C[C@@H]4C[C@H](O)CC[C@]4(C)[C@H]3C[C@H](O)[C@]12C please. no (0)

Tell me the assay call for Cc1c(C)c2c(c(N)c1C#N)C(=O)N(Nc1ccccc1)C2=O please. no (0)

Tell me the assay call for Cc1cccc2c1C(=O)/C(=C/c1ccccc1C(=O)O)C2 please. no (0)

Tell me the assay call for Cc1nc2c(nc1C)C(=O)c1ccccc1C2=O please. no (0)

====

# System: OVCAR-4
# testDetails: NCI tumour cell line growth inhibition, 48 h
The source made the active and inactive calls. Cut-off read from the data, not from the text of the source: active = GI50 up to about 1.1 µM and inactive = higher.
Outcomes you can answer with include only these: active, inactive

Field: example entries. Status: answers known.
N#CCC1COc2ccccc2O1 (centres undefined) | inactive
Cc1ccccc1N1C(=O)/C(=C/c2ccc(N(CCC#N)CCC#N)cc2)N=C1c1cc([N+](=O)[O-])ccc1Cl | inactive
N=c1[nH]cnc2c1nnn2C1C=CC(COS(N)(=O)=O)C1 (centres undefined) | inactive

We next turn to a different compound, shown below.
Tell me the assay call for CO[C@H]1C[C@H](O[C@H]2CC[C@]3(C=O)[C@H]4CC[C@]5(C)[C@@H](C6=CC(=O)OC6)CC[C@]5(O)[C@@H]4CC[C@]3(O)C2)O[C@H](C)[C@H]1O please. active
